Just for reference, paper PMC7948503 is where these values come from.

Target: T1, Rluc-ADGRG2-ΔGPS-β S661A (mouse, UniProt Q8CJ12-3 38-995, S661A)
T1 construct: ADGRG2 (GPR64), mouse, ADGRG2-ΔGPS-β: the entire ECD removed; source: HEK293, transfected, on cells; not shown: Rluc, N-terminal, kept
T1 sequence (Q8CJ12 other isoform, or with tags, fused parts or gaps S661A | S661A | S661A S661A): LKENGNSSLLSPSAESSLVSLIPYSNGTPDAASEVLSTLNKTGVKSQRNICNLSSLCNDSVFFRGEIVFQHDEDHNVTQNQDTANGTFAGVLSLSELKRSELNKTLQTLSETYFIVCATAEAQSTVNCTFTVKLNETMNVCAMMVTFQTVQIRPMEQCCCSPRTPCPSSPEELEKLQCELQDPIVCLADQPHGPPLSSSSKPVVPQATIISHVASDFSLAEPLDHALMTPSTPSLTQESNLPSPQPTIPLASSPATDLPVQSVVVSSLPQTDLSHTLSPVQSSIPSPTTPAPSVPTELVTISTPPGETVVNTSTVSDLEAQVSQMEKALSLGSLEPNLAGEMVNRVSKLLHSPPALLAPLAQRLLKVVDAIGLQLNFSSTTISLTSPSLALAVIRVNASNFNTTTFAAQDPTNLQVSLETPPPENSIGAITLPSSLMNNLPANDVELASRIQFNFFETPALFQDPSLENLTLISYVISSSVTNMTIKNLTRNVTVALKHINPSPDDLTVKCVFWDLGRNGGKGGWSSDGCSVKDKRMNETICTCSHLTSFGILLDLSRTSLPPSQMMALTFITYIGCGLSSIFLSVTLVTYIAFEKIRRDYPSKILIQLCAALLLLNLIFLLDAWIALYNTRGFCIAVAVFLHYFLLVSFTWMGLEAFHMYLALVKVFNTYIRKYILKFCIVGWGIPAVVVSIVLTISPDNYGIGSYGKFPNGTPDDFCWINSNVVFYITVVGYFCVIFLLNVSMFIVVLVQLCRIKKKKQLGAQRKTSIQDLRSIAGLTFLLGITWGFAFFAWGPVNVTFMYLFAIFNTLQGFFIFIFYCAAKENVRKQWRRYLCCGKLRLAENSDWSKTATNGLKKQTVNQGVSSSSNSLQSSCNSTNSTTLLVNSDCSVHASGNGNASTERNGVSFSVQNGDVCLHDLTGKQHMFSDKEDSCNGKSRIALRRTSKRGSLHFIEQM
Assay: FRET or BRET; HEK293 cells transfected with Rluc-ADGRG2-ΔGPS-β WT or mutants, stimulated by increasing concentrations of FITC-conjugated VPM-p15; saturation curves fitted with GraphPad; each experiment repeated 6 times
Details: one partner purified
Non-standard residues stand in square brackets, D forms with d. Primed or numbered codes have the meaning given here. No end group written: not given here. Phe(4-Me) = Cc1ccc(C[C@H](N)C(=O)O)cc1; FITC′ = not defined here
assayMetric: pEC50
API: returns pEC50 as number; meaning -log10 of concentration in mol/L.

Query block: Entry VS[Phe(4-Me)]GILLDLSRTSLP-{FITC′} [FITC-conjugated VPM-p15 (ADGRG2 Stachel peptide p15 T1V/F3Phe(4-Me))] needs its pEC50 filled in; supply it.
Result block: 6.11
